protocol notes: GC-MS identification of 3-CMC and its metabolites in the person's urine sample after derivatization
Assay type: in vivo, human
assay context: GC-MS after acetylation; fatal poisoning case

molecule	presence in urine sample
CC(=O)NC(C)C(=O)c1cccc(Cl)c1 (stereo not shown)	presence
CC(=O)NC(C)C(OC(C)=O)c1cccc(Cl)c1 (stereo not shown) [N-desmethyl-dihydro-3-CMC-2AC]	presence
CNC(C)C(=O)c1cccc(Cl)c1 (stereo not shown)	presence
